target: Nuclear receptor subfamily 1 group I member 2 (Homo sapiens); assay: Activation of human PXR expressed in HepG2 cells assessed as luciferase activity at 2 uM by chemiluminescence assay relative to rifampin; assay type: cell-based; details: hepg2, 2 µM
Sequence (O75469 whole entry): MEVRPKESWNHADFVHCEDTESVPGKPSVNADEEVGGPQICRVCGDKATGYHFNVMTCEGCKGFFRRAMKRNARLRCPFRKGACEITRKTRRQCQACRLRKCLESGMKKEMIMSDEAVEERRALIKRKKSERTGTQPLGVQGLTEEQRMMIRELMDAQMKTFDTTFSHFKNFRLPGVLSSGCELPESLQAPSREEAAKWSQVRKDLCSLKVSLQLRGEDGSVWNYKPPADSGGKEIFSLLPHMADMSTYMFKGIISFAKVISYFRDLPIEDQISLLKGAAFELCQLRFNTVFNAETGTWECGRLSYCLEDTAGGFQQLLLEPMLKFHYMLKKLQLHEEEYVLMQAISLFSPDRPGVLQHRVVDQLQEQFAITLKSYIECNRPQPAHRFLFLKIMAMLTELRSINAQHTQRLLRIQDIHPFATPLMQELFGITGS
Record fulfilled whenever Activity is at 9% or higher; record not fulfilled when lower.

A selection of reference data follows.
Kindly determine if Activity recorded for "C[C@@H]1CN(C(=O)c2ccccc2)CCN1c1nnc(-c2ccc(C(=O)O)cc2)c2ccccc12" is above or exactly 9%.
not fulfilled

Also "O=C(c1ccccc1)N1CCN(c2nnc(-c3ccccc3)c3ccccc23)CC1" , if possible.
fulfilled

Quick one: "C[C@@H]1CN(C(=O)c2ccccc2)CCN1c1nnc(-c2ncco2)c2ccccc12"
not fulfilled

How about "C[C@@H]1CN(C(=O)c2ccccc2)CCN1c1nnc(-c2ccccc2)c2cnccc12" ?
not fulfilled

Cool, now "O=C(c1ccccc1)N1CCN(c2nnc(-c3ccc(Cl)c(Cl)c3)c3ccccc23)CC1"
fulfilled

# repeat for "C[C@@H]1CN(C(=O)c2ccccc2)CCN1c1nnc(-c2ccccc2)c2ccccc12"
fulfilled

Now try "C[C@@H]1CN(C(=O)c2ccccc2)CCN1c1nnc(-c2ccccc2)c2ncccc12" .
not fulfilled

Note, next up: "C[C@@H]1CN(C(=O)c2ccccc2)CCN1c1nnc(-c2ccc(N3CCOCC3)cc2)c2ccccc12"
not fulfilled

Next:
# check: Activity of "C[C@H]1CN(C(=O)c2ccccc2)CCN1c1nnc(-c2ccccc2)c2ccccc12" is greater than or equal to 9%
fulfilled

Also "C[C@@H]1CN(C(=O)c2ccccc2)CCN1c1nnc(-c2ccc(C(F)(F)F)cc2)c2ccccc12" , if possible.
fulfilled

How about "C[C@@H]1CN(C(=O)c2ccccc2)CCN1c1nnc(-n2ccc3ccccc32)c2ccccc12" ?
fulfilled

* * *

target: Protein smoothened (Homo sapiens); experiment: Antagonist activity at human Smo receptor in HEPM cells assessed as inhibition of Gli expression after 24 hrs by quantigene assay
Sequence (Q99835 whole entry): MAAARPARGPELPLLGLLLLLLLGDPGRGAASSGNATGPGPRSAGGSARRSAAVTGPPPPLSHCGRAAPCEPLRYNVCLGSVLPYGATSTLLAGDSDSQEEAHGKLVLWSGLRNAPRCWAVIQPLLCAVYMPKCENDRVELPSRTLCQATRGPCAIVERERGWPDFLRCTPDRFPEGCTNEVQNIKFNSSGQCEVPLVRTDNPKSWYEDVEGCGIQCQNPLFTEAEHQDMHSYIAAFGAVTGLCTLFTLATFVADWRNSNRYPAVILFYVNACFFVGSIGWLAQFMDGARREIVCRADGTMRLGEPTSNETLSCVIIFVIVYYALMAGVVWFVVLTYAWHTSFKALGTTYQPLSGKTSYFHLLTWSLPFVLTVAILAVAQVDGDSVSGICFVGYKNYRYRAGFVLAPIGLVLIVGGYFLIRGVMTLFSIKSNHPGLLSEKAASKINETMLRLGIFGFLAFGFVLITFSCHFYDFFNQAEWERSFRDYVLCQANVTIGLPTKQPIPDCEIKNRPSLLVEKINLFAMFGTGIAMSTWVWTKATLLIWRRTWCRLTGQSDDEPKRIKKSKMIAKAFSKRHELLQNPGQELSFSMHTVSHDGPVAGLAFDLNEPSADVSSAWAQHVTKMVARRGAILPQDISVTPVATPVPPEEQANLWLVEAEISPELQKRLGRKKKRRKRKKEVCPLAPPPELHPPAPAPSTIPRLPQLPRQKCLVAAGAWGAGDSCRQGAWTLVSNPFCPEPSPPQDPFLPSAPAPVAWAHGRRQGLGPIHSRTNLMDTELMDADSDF
READOUT TYPE: IC50 (nM)
Numbers only here, please. The scale is nM.

Previously resolved entries follow.
Please look up its IC50: "C[C@@H]1CN(C(=O)c2ccccc2)CCN1c1nnc(-c2ccccn2)c2ccccc12"
57

Next compound up: "C[C@H]1CN(C(=O)c2ccccc2)CCN1c1nnc(-c2ccc(F)cc2)c2ccccc12"
12

Next:
Form field: reported IC50 of "C[C@@H]1CN(C(=O)c2ccccc2)CCN1c1nnc(-c2ccc(N3CCOCC3)cc2)c2ccccc12"
21

Follow-up entry: "C[C@@H]1CN(C(=O)c2ccccc2)CCN1c1nnc(-c2ccc(CC(N)=O)cc2)c2ccccc12"
4.8

What about this compound? "C[C@@H]1CN(C(=O)c2ccccc2)CCN1c1nnc(-c2ccncc2)c2ccccc12"
25

Then "CC(=O)Oc1ccc(-c2nnc(N3CCN(C(=O)c4ccccc4)C[C@H]3C)c3ccccc23)cc1" ?
3.3

Same for "C[C@@H]1CN(C(=O)c2ccccc2)CCN1c1nnc(-c2cccnc2)c2ccccc12"
79

* * *

assay: Volume of distribution at steady state in mouse at 0.5 mg/kg, iv and 2 mg/kg, po; assay type: ADME, organism-based; conditions: in vivo, read-out: Vdss
READOUT TYPE: Vd (L/kg)
Numeric answer only, unit L/kg assumed.

Sample "C[C@@H]1CN(C(=O)c2ccccc2)CCN1c1nnc(-c2ccc(C(F)(F)F)cc2)c2ccncc12" — what was its Vd?
2

Provenance of the data: ChEMBL document CHEMBL1208732
